Data provenance is patent US20020177126A1.

target: Bac-F (UniProt P03420 26-524); experiment: BIAcore, Mab vs Bac-F, 1:1
Sequence (P03420 26-524): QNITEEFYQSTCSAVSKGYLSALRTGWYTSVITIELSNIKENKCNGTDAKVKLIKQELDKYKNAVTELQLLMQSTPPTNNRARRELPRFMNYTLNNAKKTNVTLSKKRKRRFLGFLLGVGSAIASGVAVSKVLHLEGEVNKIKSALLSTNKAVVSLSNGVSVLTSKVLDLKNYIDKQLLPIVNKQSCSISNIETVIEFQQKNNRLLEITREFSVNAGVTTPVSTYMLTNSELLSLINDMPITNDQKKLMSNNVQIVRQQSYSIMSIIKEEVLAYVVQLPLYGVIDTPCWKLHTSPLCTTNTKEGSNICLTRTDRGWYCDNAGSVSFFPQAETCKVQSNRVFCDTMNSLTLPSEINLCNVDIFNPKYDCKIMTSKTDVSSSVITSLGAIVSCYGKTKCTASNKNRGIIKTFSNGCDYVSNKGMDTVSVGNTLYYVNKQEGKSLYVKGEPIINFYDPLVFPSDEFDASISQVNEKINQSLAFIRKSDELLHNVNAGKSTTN
// values below are reported koff
Write the value in s⁻¹ as a bare number.

P12f2 (monoclonal antibody) (antibody, V domains shown, also called Pf12; P1212) VH: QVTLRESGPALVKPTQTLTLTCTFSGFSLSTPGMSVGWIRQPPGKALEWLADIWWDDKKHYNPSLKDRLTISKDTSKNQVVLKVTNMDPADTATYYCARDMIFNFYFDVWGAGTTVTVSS VL: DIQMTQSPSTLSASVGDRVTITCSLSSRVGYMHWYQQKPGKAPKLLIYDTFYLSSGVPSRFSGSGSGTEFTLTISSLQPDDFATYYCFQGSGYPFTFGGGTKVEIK | 0.000128

Please look at the following binder next.
Name the recorded koff for P11d4 (monoclonal antibody) (antibody, V domains shown) VH: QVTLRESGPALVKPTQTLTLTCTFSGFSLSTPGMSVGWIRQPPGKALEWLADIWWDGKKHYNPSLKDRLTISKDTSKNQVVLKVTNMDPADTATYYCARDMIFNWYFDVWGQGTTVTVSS VL: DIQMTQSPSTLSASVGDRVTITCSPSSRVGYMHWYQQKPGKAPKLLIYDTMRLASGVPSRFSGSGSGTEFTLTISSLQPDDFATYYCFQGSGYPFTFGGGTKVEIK .
0.000289
